- Test system: 945468-187-T-J2-PDC spheroids viability;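 note: spheroids exposed to compounds for seven days before reading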
- ASSAY INFO: Anticancer human tumor 945468-187-T-J2-PDC patient-derived rectal carcinoma cell line growth inhibition [PI3K]
- TEST CONDITIONS: curve of first compound; second compound 0.0316 µM; spheroids with HUVEC and MSC
pIC50: −log10 of the molar value.
EXPERIMENTAL ENDPOINT: pIC50

Answered examples (3):
1) CCN1CCN(Cc2ccc(Nc3ncc(F)c(-c4cc(F)c5nc(C)n(C(C)C)c5c4)n3)nc2)CC1 + CC(Nc1ncnc2nc[nH]c12)c1cc2cccc(Cl)c2c(=O)n1-c1ccccc1 :: < 6.00
2) CNC(=O)c1ccc(N2C(=S)N(c3ccc(C#N)c(C(F)(F)F)c3)C(=O)C2(C)C)cc1F + CC(Nc1ncnc2nc[nH]c12)c1cc2cccc(Cl)c2c(=O)n1-c1ccccc1 :: < 5.00
3) C#Cc1c(F)ccc2cc(O)cc(-c3ncc4c(N5CC6CCC(C5)N6)nc(OCC56CCCN5CC(F)C6)nc4c3F)c12 (stereo unspecified) + CC(Nc1ccc2c(c1)OCCn1cc(N3C(=O)OCC3C(F)F)nc1-2)C(N)=O :: < 5.00

Report pIC50, nothing else, for this molecule: CC(C)n1nc(-c2ccc3oc(N)nc3c2)c2c(N)ncnc21 + COc1c(OCCCN2CCOCC2)ccc2c3n(c(=NC(=O)c4cnc(N)nc4)nc12)CCN3 7.22

Report pIC50, nothing else, for this molecule: CC(C)NCC(C(=O)N1CCN(c2ncnc3c2C(C)CC3O)CC1)c1ccc(Cl)cc1 (stereo unspecified) + CC(Nc1ccc2c(c1)OCCn1cc(N3C(=O)OCC3C(F)F)nc1-2)C(N)=O < 5.00

Report pIC50, nothing else, for this molecule: Cn1ncnc1[C@H]1c2n[nH]c(=O)c3cc(F)cc(c23)N[C@@H]1c1ccc(F)cc1 + CC(Nc1ccc2c(c1)OCCn1cc(N3C(=O)OCC3C(F)F)nc1-2)C(N)=O < 7.00

Report pIC50, nothing else, for this molecule: Cn1cnc2c(F)c(Nc3ccc(Br)cc3Cl)c(C(=O)NOCCO)cc21 + COc1c(OCCCN2CCOCC2)ccc2c3n(c(=NC(=O)c4cnc(N)nc4)nc12)CCN3 5.53

Report pIC50, nothing else, for this molecule: CC(C)NCC(C(=O)N1CCN(c2ncnc3c2C(C)CC3O)CC1)c1ccc(Cl)cc1 (stereo unspecified) + COc1c(OCCCN2CCOCC2)ccc2c3n(c(=NC(=O)c4cnc(N)nc4)nc12)CCN3 < 5.00

Report pIC50, nothing else, for this molecule: Cn1ncnc1[C@H]1c2n[nH]c(=O)c3cc(F)cc(c23)N[C@@H]1c1ccc(F)cc1 + COc1c(OCCCN2CCOCC2)ccc2c3n(c(=NC(=O)c4cnc(N)nc4)nc12)CCN3 < 7.00

Report pIC50, nothing else, for this molecule: CC1(C)CCC(Nc2ncc(C(F)(F)F)c(-c3c[nH]c4c(P(C)(C)=O)c(C#N)ccc34)n2)CN1 (stereo unspecified) + CC(Nc1ncnc2nc[nH]c12)c1cc2cccc(Cl)c2c(=O)n1-c1ccccc1 6.18

Report pIC50, nothing else, for this molecule: C=CC(=O)N1CCN(c2nc(=O)n(-c3c(C)ccnc3C(C)C)c3nc(-c4c(O)cccc4F)c(F)cc23)C(C)C1 (stereo unspecified) + CC(Nc1ncnc2nc[nH]c12)c1cc2cccc(Cl)c2c(=O)n1-c1ccccc1 < 5.00
